Recorded values, source ChEMBL document CHEMBL4261552.

Biological target: Inhibitor of nuclear factor kappa-B kinase subunit epsilon (Homo sapiens) (UniProt Q14164)
Sequence (Q14164 whole entry): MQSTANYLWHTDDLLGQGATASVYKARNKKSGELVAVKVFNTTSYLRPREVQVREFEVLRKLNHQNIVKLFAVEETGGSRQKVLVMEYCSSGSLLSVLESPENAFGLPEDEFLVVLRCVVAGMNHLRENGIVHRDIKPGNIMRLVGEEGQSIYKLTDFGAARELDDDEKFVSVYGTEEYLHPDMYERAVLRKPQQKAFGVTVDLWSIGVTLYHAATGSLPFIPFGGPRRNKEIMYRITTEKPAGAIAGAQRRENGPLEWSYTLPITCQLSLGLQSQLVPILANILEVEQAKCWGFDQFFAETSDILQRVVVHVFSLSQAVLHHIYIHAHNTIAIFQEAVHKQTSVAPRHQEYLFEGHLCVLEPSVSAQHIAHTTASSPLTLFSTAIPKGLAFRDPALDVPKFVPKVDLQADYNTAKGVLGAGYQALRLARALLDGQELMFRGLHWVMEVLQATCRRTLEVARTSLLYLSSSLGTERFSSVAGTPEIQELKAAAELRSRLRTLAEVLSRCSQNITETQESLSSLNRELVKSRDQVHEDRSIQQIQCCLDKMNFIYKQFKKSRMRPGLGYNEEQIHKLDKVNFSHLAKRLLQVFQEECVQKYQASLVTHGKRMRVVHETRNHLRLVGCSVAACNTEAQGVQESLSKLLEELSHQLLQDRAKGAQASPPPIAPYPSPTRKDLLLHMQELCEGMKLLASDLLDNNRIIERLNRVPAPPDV
Assay: Inhibition of human IKKepsilon at 100 uM using ERLLDDRHDSGLDSMKDEE as substrate after 60 mins in presence of ATP by ADP-Glo kinase assay relative to control
parameter-measured: inhibition

>>> result_value("O=C(Nc1cccc(C(F)(F)F)c1)c1nsnc1O")
"25.8%"
>>> result_value("Cc1c(C(=O)Nc2cc(C(F)(F)F)cc(C(F)(F)F)c2)c(O)nn1C")
"14.2%"
>>> result_value("O=C(Nc1cc(C(F)(F)F)cc(C(F)(F)F)c1)c1n[nH]nc1O")
"15.3%"
>>> result_value("Cn1nc(O)c(C(=O)Nc2cc(C(F)(F)F)cc(C(F)(F)F)c2)n1")
"6.92%"
